What follows is literature data on IC50 for RORc (Homo sapiens, UniProt P51449).
Give the value in nM but do not write nM after it.

Structure as smiles: CC(=O)N1CCN(c2ccc(S(=O)(=O)N(CC(F)F)c3cccc(Cl)c3)cc2)CC1
Experimental system: RORc (Homo sapiens, UniProt P51449)
Measure unit: nM
IC50: 1400
//
Structure as smiles: C[C@H](O)CNC(=O)c1cncc([C@]23CC[C@H](c4cc(-c5c(F)cccc5F)nnc42)C3(C)C)n1
Experimental system: RORc (Homo sapiens, UniProt P51449)
Measure unit: nM
IC50: 12.8
//
Structure as smiles: CC1(C)[C@H]2CC[C@]1([C@H]1CCCN(C(=O)c3ccon3)C1)c1nnc(-c3c(F)cccc3F)cc12
Experimental system: RORc (Homo sapiens, UniProt P51449)
Measure unit: nM
IC50: 6.2
//
Structure as smiles: CC1(C)[C@H]2CC[C@]1(c1cncc(-c3nc(C(O)(O)C(F)(F)F)co3)n1)c1nnc(-c3c(F)cccc3F)cc12
Experimental system: RORc (Homo sapiens, UniProt P51449)
Measure unit: nM
IC50: 21.3
//
Structure as smiles: CC1(C)[C@H]2CC[C@]1(c1cccc(-c3ccn[nH]3)n1)c1nnc(-c3c(F)cccc3F)cc12
Experimental system: RORc (Homo sapiens, UniProt P51449)
Measure unit: nM
IC50: 6.1

Prompt: Write down the reported IC50 of CC[C@@H](O[C@@]12CC[C@@H](c3cc(-c4c(F)cccc4F)nnc31)C2(C)C)C(=O)NCC(=O)N(C)C , test system: RORc (Homo sapiens, UniProt P51449).
Response: 82.9

Prompt: Write down the reported IC50 of CCOC(=O)CCC1(c2cc(F)c(CN3[C@@H](C)CC[C@H](c4ccccc4)S3(=O)=O)cc2F)CC1 , test system: RORc (Homo sapiens, UniProt P51449).
Response: 45.7
